Origin of measurements: patent US20240368243A1

target: … (SEQ ID NO: 1)-HLA-A*02 complex presented on antigen positive cancer cells (human); assay: cell-based or functional assay
Measurement kind: EC50 (mel624), IFN-γ ELISPOT, activation of redirected T cells (pM)
Reply with just the number (in pM).

Binder	Measurement units	Assay value
ImmTAC molecule comprising a28 (SEQ ID NO: 6) and b57 (SEQ ID NO: 10) (TCR, part only; not given: anti-CD3 scFv, linker, TCR constants, part only) TCR alpha, part: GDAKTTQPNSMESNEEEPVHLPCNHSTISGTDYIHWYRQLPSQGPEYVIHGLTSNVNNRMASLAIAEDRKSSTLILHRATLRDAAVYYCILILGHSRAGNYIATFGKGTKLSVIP TCR beta, part: DGGITQSPKYLFRKEGQNVTLSCEQNLNHDAMYWYRQDPGQGLRLIYYSQIMGDEQKGDIAEGYSVSREKKESFPLTVTSAQKNPTAFYLCASSWWTSGASPISFGPGTRLTVT	pM	13.4

Shift focus to the following entry.
**Query** What value of EC50 (mel624), IFN-γ ELISPOT, activation of redirected T cells has been recorded for this entry: ImmTAC molecule comprising a28 (SEQ ID NO: 6) and b60 (SEQ ID NO: 19) (TCR, part only; not given: anti-CD3 scFv, linker, TCR constants, part only) TCR alpha, part: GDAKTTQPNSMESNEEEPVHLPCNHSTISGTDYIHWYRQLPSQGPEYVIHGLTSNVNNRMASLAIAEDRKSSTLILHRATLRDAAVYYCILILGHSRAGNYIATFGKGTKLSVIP TCR beta, part: DGGITQSPKYLFRKEGQNVTLSCEQNLNHDAMYWYRQDPGQGLRLIYYSQIMGDEQKGDIAEGYSVSREKKESFPLTVTSAQKNPTAFYLCASSWWTGGASEISFGPGTRLTVT
**Result** 31.7
